target: human Nav1.8 channels (Homo sapiens); construct: expressed in transfected cells; experiment: Nav1.8 Qube automated patch-clamp assay; format: cell-based; settings: human Nav1.8 stably expressed in HEK 293 cells; whole-cell voltage clamp, room temperature; resting or inactivated state not specified; read-out: IC50 values (nM) for Examples in the Nav1.8 Qube Assay
Sequence (Q9Y5Y9 whole entry): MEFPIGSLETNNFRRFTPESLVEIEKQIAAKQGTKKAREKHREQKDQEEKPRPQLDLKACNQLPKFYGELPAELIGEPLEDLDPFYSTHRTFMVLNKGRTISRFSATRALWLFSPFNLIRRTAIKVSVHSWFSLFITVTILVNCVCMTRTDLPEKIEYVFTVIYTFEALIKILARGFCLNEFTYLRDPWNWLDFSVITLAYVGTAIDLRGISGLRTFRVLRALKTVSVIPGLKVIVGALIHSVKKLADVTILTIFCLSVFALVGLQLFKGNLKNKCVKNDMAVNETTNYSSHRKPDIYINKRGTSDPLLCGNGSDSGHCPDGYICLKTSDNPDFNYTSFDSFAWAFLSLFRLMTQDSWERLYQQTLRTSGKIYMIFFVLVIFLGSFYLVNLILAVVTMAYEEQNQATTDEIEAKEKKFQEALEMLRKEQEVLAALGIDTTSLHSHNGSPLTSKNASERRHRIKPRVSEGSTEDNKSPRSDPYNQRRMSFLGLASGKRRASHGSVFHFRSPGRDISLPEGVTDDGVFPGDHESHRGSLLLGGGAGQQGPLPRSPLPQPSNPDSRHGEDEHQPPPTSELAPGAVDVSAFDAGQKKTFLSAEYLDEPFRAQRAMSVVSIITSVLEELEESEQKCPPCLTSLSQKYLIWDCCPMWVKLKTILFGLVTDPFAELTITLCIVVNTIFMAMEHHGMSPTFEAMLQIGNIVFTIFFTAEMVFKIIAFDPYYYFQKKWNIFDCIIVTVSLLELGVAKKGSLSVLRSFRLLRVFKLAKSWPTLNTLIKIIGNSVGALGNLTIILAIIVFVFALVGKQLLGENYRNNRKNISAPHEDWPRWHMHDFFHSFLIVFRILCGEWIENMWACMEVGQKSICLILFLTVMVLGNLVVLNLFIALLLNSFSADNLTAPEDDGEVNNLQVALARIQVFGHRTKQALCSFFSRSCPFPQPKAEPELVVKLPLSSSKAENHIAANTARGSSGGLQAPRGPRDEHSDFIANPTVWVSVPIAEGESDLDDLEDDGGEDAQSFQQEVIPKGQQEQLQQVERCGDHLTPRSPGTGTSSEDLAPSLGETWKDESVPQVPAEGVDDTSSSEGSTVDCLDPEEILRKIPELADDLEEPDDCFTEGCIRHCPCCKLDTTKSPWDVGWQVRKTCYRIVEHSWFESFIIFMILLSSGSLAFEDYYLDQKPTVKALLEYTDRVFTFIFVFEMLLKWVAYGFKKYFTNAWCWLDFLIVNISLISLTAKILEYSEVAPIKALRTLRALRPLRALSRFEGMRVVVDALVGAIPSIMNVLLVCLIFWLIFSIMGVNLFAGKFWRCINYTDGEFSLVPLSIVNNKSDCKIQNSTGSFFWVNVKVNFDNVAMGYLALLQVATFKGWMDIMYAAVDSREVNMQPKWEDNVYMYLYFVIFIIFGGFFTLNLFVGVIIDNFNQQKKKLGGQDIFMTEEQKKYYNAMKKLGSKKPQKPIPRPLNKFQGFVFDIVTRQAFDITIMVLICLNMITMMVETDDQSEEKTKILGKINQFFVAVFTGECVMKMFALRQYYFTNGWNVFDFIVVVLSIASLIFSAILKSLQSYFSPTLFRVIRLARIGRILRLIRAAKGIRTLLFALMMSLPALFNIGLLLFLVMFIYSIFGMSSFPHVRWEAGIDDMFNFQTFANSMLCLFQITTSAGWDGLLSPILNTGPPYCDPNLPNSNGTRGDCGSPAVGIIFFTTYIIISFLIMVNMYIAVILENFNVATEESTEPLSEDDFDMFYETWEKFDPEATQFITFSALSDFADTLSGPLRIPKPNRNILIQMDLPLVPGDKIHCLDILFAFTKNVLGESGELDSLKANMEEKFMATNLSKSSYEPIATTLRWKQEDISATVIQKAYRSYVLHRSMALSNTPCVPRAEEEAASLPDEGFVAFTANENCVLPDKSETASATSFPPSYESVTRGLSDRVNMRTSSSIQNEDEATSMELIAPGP
// classify: if (IC50 < 200 nM) met else not met

Would you please look over these solved cases?
>  <compound>
N#Cc1noc(NC(=O)c2cc(C(F)(F)F)cnc2N2CCCCCC2)n1 [Example 45]

>  <discreteLabel>
not met

$$$$
>  <compound>
CC1(C)CN(c2ncc(C(F)(F)F)cc2C(=O)Nc2ccnc(S(N)(=O)=O)c2)CCO1 [Example 88]

>  <discreteLabel>
not met

$$$$

For this compound, is IC50 lower than 200 nM? C[C@@H]1CN(c2ncc(C(F)(F)F)cc2C(=O)Nc2ccnc(C#N)c2)C[C@H](C)C1(F)F [Example 150]
met

For this compound, is IC50 lower than 200 nM? NS(=O)(=O)c1cc(NC(=O)c2cc(C(F)(F)F)cnc2N2CCCC(CO)C2)ccn1 (centres unmarked) [Example 7]
not met

For this compound, is IC50 lower than 200 nM? COc1ccc(C(=O)Nc2cncc(S(N)(=O)=O)c2)c(N2CCCC(F)(F)CC2)n1 [Example 192]
met

For this compound, is IC50 lower than 200 nM? CC1(O)CCCN(c2ncc(C(F)(F)F)cc2C(=O)Nc2ccnc(S(N)(=O)=O)c2)C1 (centres unmarked) [Example 112]
not met

For this compound, is IC50 lower than 200 nM? NS(=O)(=O)c1cc(NC(=O)c2cc(C(F)(F)F)cnc2N2CCOC(C(F)(F)F)CC2)ccn1 (single isomer, unassigned) [Example 118]
met

For this compound, is IC50 lower than 200 nM? NS(=O)(=O)c1cc(NC(=O)c2cc(Br)cnc2N2CCC(F)(F)CC2)ccn1 [Example 204]
met

* * *

biological target: human Nav1.8 channels (Homo sapiens); construct: expressed in transfected cells; test: Nav1.8 Qube automated patch-clamp assay; format: cell-based; conditions: human Nav1.8 stably expressed in HEK 293 cells; whole-cell voltage clamp, room temperature; resting or inactivated state not specified; read-out: IC50 values (nM) for Examples in the Nav1.8 Qube Assay
measure: IC50 (nM)
Answers are plain numbers, in nM.

Recorded results for 3 molecules are shown here.
>  <molecule>
NS(=O)(=O)c1cc(NC(=O)c2cc(C(F)(F)F)cnc2N2CCCC(c3cc(F)cc(F)c3)C2)ccn1 (stereo not shown) [Example 81]

>  <assayValue>
39

$$$$
>  <molecule>
NC(=O)c1cc(NC(=O)c2cc(C(F)(F)F)cnc2N2CCCCCC2)ccn1 [Example 203]

>  <assayValue>
139

$$$$
>  <molecule>
Cc1nc(N2CCCCCC2)c(C(=O)Nc2ccnc(S(N)(=O)=O)c2)c(C)c1Cl [Example 201]

>  <assayValue>
1.3

$$$$

Would you mind listing IC50 for each of the following molecules?
1. NS(=O)(=O)c1cc(NC(=O)c2cc(C(F)(F)F)c(C3CC3)nc2N2CCCC(F)(F)CC2)ccn1 [Example 185]
2. NS(=O)(=O)c1cc(NC(=O)c2ncc(Cl)nc2N2CCCC(F)(F)CC2)ccn1 [Example 216]
3. CC1CN(c2ncc(C(F)(F)F)cc2C(=O)Nc2ccnc(S(N)(=O)=O)c2)CCC(C(F)(F)F)O1 (single isomer, unassigned) [Example 123]

3.8
80
28

Could you tell me which IC50 is on file for CC1CN(c2ncc(C(F)(F)F)cc2C(=O)Nc2ccnc(S(N)(=O)=O)c2)CCC1(Cl)Cl (single isomer, unassigned) [Example 49] ?
1.4
